# assay.name: Biodistribution of 99mTc complexes in mice
# Assay type: in vivo, Balb/c mice
# assay.context: 10 min
Hi there, I'd appreciate the recorded biodistribution urine for every entry that follows.
One number for each entry, in % Injected dose.

1) Cc1cc(C)c(O)c(NC(=O)CN(CCN(CC(=O)O)CC(=O)Nc2cc(C)cc(C)c2O)CC(=O)O)c1 [Compound 6] ... 1.231
2) Nc1ccc(O)c(NC(=O)CN(CCN(CC(=O)O)CC(=O)Nc2cc(N)ccc2O)CC(=O)O)c1 [Compound 5] ... 10.66
3) CC(C)(C)c1ccc(O)c(NC(=O)CN(CCN(CC(=O)O)CC(=O)Nc2cc(C(C)(C)C)ccc2O)CC(=O)O)c1 [Compound 4] ... 4.27
4) O=C(O)CN(CCN(CC(=O)O)CC(=O)Nc1ccccc1O)CC(=O)Nc1ccccc1O [Compound 1] ... 11.64

Let us examine a further case.
Notebook: O=C(O)CN(CCN(CC(=O)O)CC(=O)Nc1ccc(Cl)cc1O)CC(=O)Nc1ccc(Cl)cc1O [Compound 2] , biodistribution urine read as 2.67

---

# assay.name: Biodistribution of 99mTc complexes in mice
# Assay type: in vivo, Balb/c mice
# assay.context: 10 min
# Procedure: A series of derivatives incorporating carboxyl and phenolate donor groups (1-6) were synthesised by literature method and their radiolabelling characteristic and biological behaviour evaluated. […] A typical method of radiolabelling of the chelator was achieved by dissolving the chelator in a basic solution of saline. […] The efficacy of labelling was determined by ITLC-SG. […]
parameter: biodistribution tail (% Injected dose)
One number for each entry, in % Injected dose.

Recorded results for 3 compounds are shown here.
1) O=C(O)CN(CCN(CC(=O)O)CC(=O)Nc1ccccc1O)CC(=O)Nc1ccccc1O ... 2.07
2) Cc1cc(C)c(O)c(NC(=O)CN(CCN(CC(=O)O)CC(=O)Nc2cc(C)cc(C)c2O)CC(=O)O)c1 ... 4.77
3) O=C(O)CN(CCN(CC(=O)O)CC(=O)Nc1ccc(Cl)cc1O)CC(=O)Nc1ccc(Cl)cc1O ... 18.31

Notebook: CC(C)(C)c1ccc(O)c(NC(=O)CN(CCN(CC(=O)O)CC(=O)Nc2cc(C(C)(C)C)ccc2O)CC(=O)O)c1 , biodistribution tail read as 3.58

---

Hi there, I'd appreciate the recorded biodistribution spleen for every entry that follows.
# assay.name: Biodistribution of 67Ga complexes in mice
# Format: in vivo, balb/c mice
# assay.context: 10 min
Give bare numbers, in % ID.

Recorded results for 3 compounds are shown here.
1. O=C(O)CN(CCN(CC(=O)O)CC(=O)Nc1ccc(Cl)cc1O)CC(=O)Nc1ccc(Cl)cc1O [Compound 2] ... 0.02
2. CC(C)(C)c1ccc(O)c(NC(=O)CN(CCN(CC(=O)O)CC(=O)Nc2cc(C(C)(C)C)ccc2O)CC(=O)O)c1 [Compound 4] ... 0.00
3. Cc1cc(C)c(O)c(NC(=O)CN(CCN(CC(=O)O)CC(=O)Nc2cc(C)cc(C)c2O)CC(=O)O)c1 [Compound 6] ... 0.03

Let us examine a further case.
Notebook: O=C(O)CN(CCN(CC(=O)O)CC(=O)Nc1ccccc1O)CC(=O)Nc1ccccc1O [Compound 1] , biodistribution spleen read as 0.06

---

# assay.name: Biodistribution of 99mTc complexes in rats
# Type: in vivo, Australian Albino Wistar Rats
# assay.context: rat, skin, rats, 10 min, read-out: biodistribution skin
parameter: tissue uptake at 10 min
# output: numeric value plus its unit

Recorded results for 4 compounds are shown here.
1. Nc1ccc(O)c(NC(=O)CN(CCN(CC(=O)O)CC(=O)Nc2cc(N)ccc2O)CC(=O)O)c1 [Compound 5] ... 0.46 %ID/g
2. CC(C)(C)c1ccc(O)c(NC(=O)CN(CCN(CC(=O)O)CC(=O)Nc2cc(C(C)(C)C)ccc2O)CC(=O)O)c1 [Compound 4] ... 0.36 %ID/g
3. O=C(O)CN(CCN(CC(=O)O)CC(=O)Nc1ccc(Cl)cc1O)CC(=O)Nc1ccc(Cl)cc1O [Compound 2] ... 0.33 %ID/g
4. O=C(O)CN(CCN(CC(=O)O)CC(=O)Nc1ccccc1O)CC(=O)Nc1ccccc1O [Compound 1] ... 0.4 %ID/g

Notebook: O=C(O)CN(CCN(CC(=O)O)CC(=O)Nc1cc([N+](=O)[O-])ccc1O)CC(=O)Nc1cc([N+](=O)[O-])ccc1O [Compound 3] , tissue uptake at 10 min read as 0.63 %ID/g

---

# assay.name: Biodistribution of 99mTc complexes in rats
# Type: in vivo, Australian Albino Wistar Rats
# assay.context: rat, total git, rats, 30 sec, read-out: biodistribution tot GIT
Hi there, I'd appreciate the recorded tissue uptake at 0.5 min for every entry that follows.
Numbers only, in %ID/g.

1. O=C(O)CN(CCN(CC(=O)O)CC(=O)Nc1ccccc1O)CC(=O)Nc1ccccc1O [Compound 1] ... 0.27
2. Nc1ccc(O)c(NC(=O)CN(CCN(CC(=O)O)CC(=O)Nc2cc(N)ccc2O)CC(=O)O)c1 [Compound 5] ... 0.35
3. CC(C)(C)c1ccc(O)c(NC(=O)CN(CCN(CC(=O)O)CC(=O)Nc2cc(C(C)(C)C)ccc2O)CC(=O)O)c1 [Compound 4] ... 0.61

Let us examine a further case.
Notebook: O=C(O)CN(CCN(CC(=O)O)CC(=O)Nc1ccc(Cl)cc1O)CC(=O)Nc1ccc(Cl)cc1O [Compound 2] , tissue uptake at 0.5 min read as 0.48

---

# assay.name: Biodistribution of 67Ga complexes in mice
# Format: in vivo, balb/c mice
# assay.context: 30 min
Hi there, I'd appreciate the recorded biodistribution muscle for every entry that follows.
Give bare numbers, in % ID.

Give biodistribution muscle for all compounds that follow.
1. CC(C)(C)c1ccc(O)c(NC(=O)CN(CCN(CC(=O)O)CC(=O)Nc2cc(C(C)(C)C)ccc2O)CC(=O)O)c1
2. Cc1cc(C)c(O)c(NC(=O)CN(CCN(CC(=O)O)CC(=O)Nc2cc(C)cc(C)c2O)CC(=O)O)c1
3. O=C(O)CN(CCN(CC(=O)O)CC(=O)Nc1ccccc1O)CC(=O)Nc1ccccc1O

output:
[0.32, 7.73, 1.80]

Notebook: O=C(O)CN(CCN(CC(=O)O)CC(=O)Nc1ccc(Cl)cc1O)CC(=O)Nc1ccc(Cl)cc1O , biodistribution muscle read as 2.00

---

# assay.name: Biodistribution of 99mTc complexes in rats
# Format: in vivo, Australian Albino Wistar Rats
# assay.context: rat, bone, rats, 10 min, read-out: biodistribution bone
Hi there, I'd appreciate the recorded tissue uptake at 10 min for every entry that follows.
Numbers only, in %ID/g.

Recorded results for 3 molecules are shown here.
1) O=C(O)CN(CCN(CC(=O)O)CC(=O)Nc1ccc(Cl)cc1O)CC(=O)Nc1ccc(Cl)cc1O ... 0.15
2) Nc1ccc(O)c(NC(=O)CN(CCN(CC(=O)O)CC(=O)Nc2cc(N)ccc2O)CC(=O)O)c1 ... 0.36
3) CC(C)(C)c1ccc(O)c(NC(=O)CN(CCN(CC(=O)O)CC(=O)Nc2cc(C(C)(C)C)ccc2O)CC(=O)O)c1 ... 0.19

Give tissue uptake at 10 min for all molecules that follow.
1. O=C(O)CN(CCN(CC(=O)O)CC(=O)Nc1ccccc1O)CC(=O)Nc1ccccc1O
2. O=C(O)CN(CCN(CC(=O)O)CC(=O)Nc1cc([N+](=O)[O-])ccc1O)CC(=O)Nc1cc([N+](=O)[O-])ccc1O

output:
1: 0.19; 2: 0.22

---

Hi there, I'd appreciate the recorded tissue uptake at 5 min for every entry that follows.
# assay.name: Biodistribution of 99mTc complexes in rats
# Assay type: in vivo, Australian Albino Wistar Rats
# assay.context: rat, lungs, rats, 5 min, read-out: biodistribution lungs
Give bare numbers, in %ID/g.

Recorded results for 4 compounds are shown here.
1. O=C(O)CN(CCN(CC(=O)O)CC(=O)Nc1cc([N+](=O)[O-])ccc1O)CC(=O)Nc1cc([N+](=O)[O-])ccc1O [Compound 3] ... 0.72
2. CC(C)(C)c1ccc(O)c(NC(=O)CN(CCN(CC(=O)O)CC(=O)Nc2cc(C(C)(C)C)ccc2O)CC(=O)O)c1 [Compound 4] ... 0.66
3. O=C(O)CN(CCN(CC(=O)O)CC(=O)Nc1ccc(Cl)cc1O)CC(=O)Nc1ccc(Cl)cc1O [Compound 2] ... 0.59
4. Nc1ccc(O)c(NC(=O)CN(CCN(CC(=O)O)CC(=O)Nc2cc(N)ccc2O)CC(=O)O)c1 [Compound 5] ... 1.25

Notebook: O=C(O)CN(CCN(CC(=O)O)CC(=O)Nc1ccccc1O)CC(=O)Nc1ccccc1O [Compound 1] , tissue uptake at 5 min read as 0.54

---

# assay.name: Biodistribution of 99mTc complexes in rats
# Assay type: in vivo, Australian Albino Wistar Rats
# assay.context: rat, thymus, rats, 10 min, read-out: biodistribution thymus
Hi there, I'd appreciate the recorded tissue uptake at 10 min for every entry that follows.
# output: numeric value plus its unit

Recorded results for 3 compounds are shown here.
1. Nc1ccc(O)c(NC(=O)CN(CCN(CC(=O)O)CC(=O)Nc2cc(N)ccc2O)CC(=O)O)c1 [Compound 5] ... 0.39 %ID/g
2. CC(C)(C)c1ccc(O)c(NC(=O)CN(CCN(CC(=O)O)CC(=O)Nc2cc(C(C)(C)C)ccc2O)CC(=O)O)c1 [Compound 4] ... 0.19 %ID/g
3. O=C(O)CN(CCN(CC(=O)O)CC(=O)Nc1ccccc1O)CC(=O)Nc1ccccc1O [Compound 1] ... 0.14 %ID/g

Give tissue uptake at 10 min for all compounds that follow.
1. O=C(O)CN(CCN(CC(=O)O)CC(=O)Nc1cc([N+](=O)[O-])ccc1O)CC(=O)Nc1cc([N+](=O)[O-])ccc1O [Compound 3]
2. O=C(O)CN(CCN(CC(=O)O)CC(=O)Nc1ccc(Cl)cc1O)CC(=O)Nc1ccc(Cl)cc1O [Compound 2]

output:
1. 0.2 %ID/g
2. 0.15 %ID/g

// provenance: patent US5807535A
